Assay: Two-period crossover pharmacokinetics of nalmefene 3 mg IN vs 1.0 mg IM (Example 12)
Settings: human, plasma, im, 1 mg, AUC0-20 min, Treatment B: 1.0 mg nalmefene IM (gluteal muscle); plasma; Geo. Mean, n 68
Metric: AUC(0-t) (ng·h/mL)
# output: bare number, implied unit ng·h/mL

The molecule `C=C1CC[C@@]2(O)[C@H]3Cc4ccc(O)c5c4[C@@]2(CCN3CC2CC2)[C@H]1O5` showed AUC(0-t) equal to 0.228

###

Test: Two-period crossover pharmacokinetics of nalmefene 3 mg IN vs 1.0 mg IM (Example 12)
Conditions: human, plasma, other: intranasal, 3 mg, AUCinf, GeoMean, Treatment A 3.0 mg IN (Test)
Metric: AUC(0-inf) (ng·h/mL)
# output: bare number, implied unit ng·h/mL

The compound C=C1CC[C@@]2(O)[C@H]3Cc4ccc(O)c5c4[C@@]2(CCN3CC2CC2)[C@H]1O5 [Nalmefene] showed AUC(0-inf) equal to 40.3
